tested on: Blood; assay: Inhibition of LPS-induced TNFalpha production in human whole blood at 10 uM treated 1 hr before LPS challenge measured after 5 hrs by ELISA; format: functional
So I've got a bunch of compounds here, and I need their inhibition at 10 µM values.
Express your answer in %, writing the number without its unit.

Sample "COC(=O)/C(=C/c1ccc(OC)cc1)Cn1nnnc1-c1cccnc1" ; inhibition at 10 µM observed: 5.4

inhibition at 10 µM measured on "COC(=O)/C(=C/c1ccc(OC)cc1)Cn1nnnc1-c1ccccc1" = 22.2

# inhibition at 10 µM of "COC(=O)/C(=C/c1ccccc1)Cn1nnnc1-c1ccncc1" = 18.2

Lab note: measured inhibition at 10 µM of "COC(=O)/C(=C/c1ccc(OC)cc1)Cn1nnnc1-c1ccncc1" was 8.6

The reported inhibition at 10 µM of the compound "COC(=O)/C(=C/c1ccccc1)Cn1nnnc1-c1ccccc1" was 14.6
